Where do the numbers come from? From a melting point compilation (Tetko et al.; mined from patent text by program, amines drawn as free bases though some values may be those of a salt).

Listed here are molecules together with their documented melting point.

[[record]]
molecule = "COc1c(N2CCC(c3ccccc3CN)C2)c(F)cc2c(=O)c(C(=O)O)cn(C3CC3)c12 (centres undefined)"
recorded_measurement = "170 to 174 °C"

[[record]]
molecule = "Cn1cc(S(C)(=O)=O)c(=O)c2ccc(Cl)cc21"
recorded_measurement = "241 to 242 °C"

[[record]]
molecule = "C=CCOc1ccc2cc(Br)ccc2c1"
recorded_measurement = "35 to 37 °C"


Let us examine a further case.
What melting point value was documented for this molecule, Nc1ncc(-c2cnc3ccc(-c4ccc(OCC5(CNC(=O)C6CC6)COC5)cc4)nn23)cc1C(F)(F)F ?
223 to 225 °C
